- tgt: TXK (Homo sapiens (Human))
- Sequence (P42681 whole entry, species assumed): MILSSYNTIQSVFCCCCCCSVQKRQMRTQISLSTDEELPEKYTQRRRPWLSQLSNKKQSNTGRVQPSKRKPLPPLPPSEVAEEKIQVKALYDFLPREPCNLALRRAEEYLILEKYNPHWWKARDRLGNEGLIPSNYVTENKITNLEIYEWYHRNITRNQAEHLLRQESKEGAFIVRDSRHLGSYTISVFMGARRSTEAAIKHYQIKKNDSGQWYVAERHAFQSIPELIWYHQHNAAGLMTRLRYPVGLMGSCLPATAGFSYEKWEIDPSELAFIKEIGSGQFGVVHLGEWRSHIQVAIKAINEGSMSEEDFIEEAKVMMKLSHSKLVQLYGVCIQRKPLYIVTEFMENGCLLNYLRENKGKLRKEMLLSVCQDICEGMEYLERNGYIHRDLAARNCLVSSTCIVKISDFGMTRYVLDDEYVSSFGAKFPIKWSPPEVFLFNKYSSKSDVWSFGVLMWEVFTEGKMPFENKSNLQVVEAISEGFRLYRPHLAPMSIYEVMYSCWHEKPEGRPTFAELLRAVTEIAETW
- testSummary: IC50 against TXK
- Format: biochemical
- testParameters: ratio of TXK IC50 to ITK IC50
Label key: 1.0 means TXK/ITK under 3; 0.0 means TXK/ITK of 3 or more.

As a guide, the following entries are already answered.
C=CC(=O)N1CCN(C(=O)c2cc(Sc3cnc(NC(=O)C4CC4)s3)c(C)cn2)CC1 [Compound 76] | 1.0
C=CC(=O)N1CCN(C(=O)c2cc(Sc3cnc(NC(=O)C4CC4)s3)c(C)cc2CC)C[C@H]1CC [Compound 104] | 0.0
C=CC(=O)N1CCN(C(=O)c2cc(Sc3cnc(NC(=O)c4ccsc4)s3)c(C)cc2OC)[C@@H](C)C1 [Compound 144] | 0.0
C=CC(=O)N1CCCN(C(=O)c2cc(Sc3cnc(NC(=O)c4cccc(CN(C)C)c4)s3)c(C)cc2OC)CC1 [Compound 33] | 0.0
C=CC(=O)N1CC[C@@H](N(C)C(=O)c2cc(Sc3cnc(NC(=O)C4CC4)s3)c(C)cc2OC)C1 [Compound 27] | 1.0

Say whether its TXK/ITK is strictly beneath 3. Entry: C=CC(=O)N1CCN(C(=O)c2cc(Sc3cnc(NC(=O)C4CC4)s3)ccc2OC)C[C@H]1C [Compound 79] 0.0

Item C=CC(=O)N1CCN(C(=O)c2cc(Sc3cnc(NC(=O)C4CCCC4)s3)c(C)cc2OC)CC1 [Compound 31] : TXK/ITK beneath 3, strictly? 0.0

Is 3 strictly greater than the compound's reported TXK/ITK? compound: C=CC(=O)N1CCC2(C1)CN(C(=O)c1cc(Sc3cnc(Nc4ccccn4)s3)c(C)cc1OC)C2 [Compound 152] 1.0

Identify whether the compound C=CC(=O)N1CCN(C(=O)c2cc(Sc3cnc(NC(=O)c4ccsc4)s3)c(C)cc2OC)C[C@H]1CC [Compound 113] records TXK/ITK below 3. 0.0

Hello, I'm reviewing records and need to know if TXK/ITK of C=CC(=O)N1CCN(C(=O)c2cc(Sc3cnc(NC(=O)C4CC4)s3)ccc2OC)CC1 [Compound 78] is below 3. Could you check? 0.0

Determine whether this compound shows TXK/ITK lower than 3 (ties excluded): C=CC(=O)N1CCN(C(=O)c2cc(Sc3cnc(NC(=O)c4cnn(C)c4)s3)c(C)cc2OC)C[C@H]1CC [Compound 115] 0.0

----------
A collection of compounds and their measured IC50
- tgt: UniProt P42681
- testSummary: IC50 against TXK
- Assay type: biochemical

C=CC(=O)N1CCN(C(=O)c2cc(Sc3cnc(NC(=O)c4ccn(C)c4)s3)c(C)cc2OC)C[C@H]1CC | 10 to 100 nM
C=CC(=O)N1CC[C@H](N(C)C(=O)c2cc(Sc3cnc(NC(=O)C4CC4)s3)c(C)cc2OC)C1 | < 10 nM
C=CC(=O)N1CCCN(C(=O)c2cc(Sc3cnc(NC(=O)C4CC4)s3)cc(C)c2C)C[C@H]1C | 1000 to 10000 nM
C=CC(=O)N1CCN(C(=O)c2cc(Sc3cnc(NC(=O)c4cccc(CN(C)C)c4)s3)c(C)cc2OC)CC1 | 100 to 1000 nM
C=CC(=O)N1CCCN(C(=O)c2cc(Sc3cnc(NC(=O)c4cccc(CN[C@H](C)C(C)(C)C)c4)s3)c(C)cc2OC)CC1 | 1000 to 10000 nM

Would you kindly share the measured IC50 for C=CC(=O)N1CCN(C(=O)c2cc(Sc3cnc(NC(=O)C4CC4)s3)c(C)cc2OC)CC1(C)C ? 10 to 100 nM

Param item = C=CC(=O)N1CCCN(C(=O)c2cc(Sc3cnc(NC(=O)c4cnsc4)s3)c(C)cc2C)C[C@H]1CC ; retrieve measured IC50. 100 to 1000 nM

Data origin: patent US11008314B2
